Target: Glucagon-like peptide 1 receptor (Homo sapiens) (UniProt P43220)
Sequence (P43220 whole entry, looked up): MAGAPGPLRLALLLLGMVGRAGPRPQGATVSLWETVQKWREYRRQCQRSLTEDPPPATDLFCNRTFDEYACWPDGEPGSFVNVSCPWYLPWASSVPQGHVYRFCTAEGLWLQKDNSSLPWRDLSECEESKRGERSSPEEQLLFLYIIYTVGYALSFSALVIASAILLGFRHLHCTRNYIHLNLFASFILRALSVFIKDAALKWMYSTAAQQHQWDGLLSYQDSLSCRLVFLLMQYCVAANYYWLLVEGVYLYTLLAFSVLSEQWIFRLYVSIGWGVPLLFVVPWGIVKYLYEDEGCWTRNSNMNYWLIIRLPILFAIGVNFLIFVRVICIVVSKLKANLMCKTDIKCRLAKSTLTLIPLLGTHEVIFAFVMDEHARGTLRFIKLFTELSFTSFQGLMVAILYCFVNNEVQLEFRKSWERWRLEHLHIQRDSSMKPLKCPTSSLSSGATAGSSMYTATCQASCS
Experiment: qHTS of GLP-1 Receptor Inverse Agonists (Inhibition Mode); also: nearly all actives have a fitted effect of over 55% in size
Settings: HEK293 GLP-1R CRE-luciferase, luminescence, 24 h, GLP-1R form is constitutively active; series mostly up to 38.3 µM
The campaign covered roughly 410,000 compounds. About 6,400 (1.6%) were called active. Roughly 20% stayed inconclusive and do not appear here. Calls follow the shape of the dose curve; as a rule, active = well fitted inhibition curve with a large enough effect; inconclusive = small, poorly fitted or top-dose-only effect; inactive = no such curve, though single readings can be large or run the other way. The full list was thinned out, with actives kept by preference.
Returns: one label drawn from True (active), False (inactive)

In this assay, the call recorded for CN(C)CCN(C(=O)CN1C(=O)c2ccccc2C1=O)c1nc2cc3c(cc2s1)OCCO3 was what?
False

Could you please tell me the result logged for CC1=C(C(=O)N2CCOCC2)CC(CC(=O)NCCCN(C)C)C(=O)N1Cc1ccc(C(C)(C)C)cc1 (stereo not given) in this assay?
False

In this assay, the call recorded for Cc1cc2nc(NC(=O)c3ccc(S(=O)(=O)N4CCOCC4)cc3)sc2cc1C was what?
False

What call does the record list for CN(C)CCCN(C(=O)c1ccc(S(=O)(=O)N2CCCCCC2)cc1)c1nc2cc3c(cc2s1)OCCO3 ?
True

Called result for CCN(CC)CCCNC(=O)c1cn(C)c2ccc(S(=O)(=O)N(C)C3CCCCC3)cc2c1=O
False

###

Target: Glucagon-like peptide 1 receptor (Homo sapiens) (UniProt P43220)
Test: qHTS of GLP-1 Receptor Inverse Agonists (Inhibition Mode); also: nearly all actives have a fitted effect of over 55% in size
Settings: HEK293 GLP-1R CRE-luciferase, luminescence, 24 h, GLP-1R form is constitutively active; series mostly up to 38.3 µM
Out of some 410,000 compounds screened, about 6,400 (1.6%) were called active. Not shown: some 20% with an inconclusive outcome. The call rests on the fitted dose curve; in most records, active means well fitted inhibition curve with a large enough effect; inconclusive means small, poorly fitted or top-dose-only effect; inactive means no such curve, though single readings can be large or run the other way. The sample holds actives, similar compounds and a random draw of the others, so the mix is not that of the screen. Peptide text beside a SMILES is read from it. * marks the point of attachment. Bz = O=C(c1ccccc1)*
Entry note: the call must match one of active, inactive

Consider the following illustrative entries.
{"Molecule": "NS(=O)(=O)c1ccc(CCNc2nc(C(F)(F)F)nc3ccccc23)cc1", "Category Label": "inactive"}
{"Molecule": "O=C(NC(Cc1ccccc1)C(=O)N1CCCC1C(=O)O)c1ccccc1 (stereo not drawn) (Bz-Phe-Pro-OH; configuration not given here)", "Category Label": "inactive"}
{"Molecule": "O=C(CSc1ccccc1)Nc1cc(Cl)ccc1Oc1ccccc1", "Category Label": "active"}
{"Molecule": "CC(C)c1cc(Cn2c3ccccc3c(=O)n2C(C)Cn2cc(C3CC3)nn2)on1 (stereo unspecified)", "Category Label": "inactive"}
{"Molecule": "Cc1cc(C(C)(C)C)oc1C(=O)N(CC(=O)NC1CCCC1)Cc1ccc(Cl)cc1", "Category Label": "active"}

Hey, what did the test say about O=S1(=O)CC(N2CCN(CCO)CC2)CN1C1CCCC1 (stereo unspecified) ?
inactive

Query: recorded result category for CC(=O)C[C@@H]1OC[C@H](C)N1S(=O)(=O)c1ccc(C)cc1 in this test
inactive

Dear all, I need the recorded test outcome for O=C(NCc1nnnn1-c1ccc(Cl)cc1)c1ccc2c(c1)OCO2 , thank you.
inactive

Outcome? CCOc1ccc(NC(=O)CCS(=O)(=O)c2cccc3nsnc23)cc1
inactive

Called result for CN1CCN(C(=O)c2ccc(-c3cc4nc(NCc5cccnc5)n(C)c(=O)c4s3)cc2)CC1
inactive

Query: recorded result category for COc1ccc(Cl)cc1NC(=O)CSc1nc2ccccc2c2nc(-c3ccccc3)nn12 in this test
inactive

Answer briefly: the call reported for Cc1ccc(C)c(NS(=O)(=O)c2ccc(OCC(=O)NCc3cccnc3)cc2)c1 in this assay.
inactive

I would be grateful if you could indicate the recorded call for COc1ccc(C(=O)Nc2sc(C)c(C)c2CN2CCOCC2)cc1 .
inactive

Could you kindly confirm the outcome this assay logged for O=C1OC(Oc2ccc(Br)cc2)(c2ccccc2)c2ccccc21 (stereo unspecified) ?
active

Name the outcome recorded for CCOC(=O)C1(S(=O)(=O)c2ccc(Cl)cc2)CCN(Cc2ccccc2)CC1 in the assay.
inactive

###

Biological target: Glucagon-like peptide 1 receptor (Homo sapiens)
Test: qHTS of GLP-1 Receptor Inverse Agonists (Inhibition Mode); also: nearly all actives have a fitted effect of over 55% in size; also: potency is read from the fitted curve at half-maximal effect
Conditions: HEK293 GLP-1R CRE-luciferase, luminescence, 24 h, GLP-1R form is constitutively active; series mostly up to 38.3 µM
The campaign covered roughly 410,000 compounds. About 6,400 (1.6%) were called active. Not shown: some 20% with an inconclusive outcome. The full list was thinned out, with actives kept by preference.
Measured Attribute: Potency

Sample answers from the record:
{"Compound Structure String": "COc1ccc([C@H]2C[C@@H](n3cc(COC(=O)c4ccccc4)nn3)[C@H](O)CN2C(=O)c2cccs2)cc1", "Tested System": "Glucagon-like peptide 1 receptor (Homo sapiens)", "Meas Value": "inactive"}
{"Compound Structure String": "O=C(OCC(=O)N1CCCCCC1)c1cccc(Cl)c1Cl", "Tested System": "Glucagon-like peptide 1 receptor (Homo sapiens)", "Meas Value": "inactive"}
{"Compound Structure String": "Cc1csc(=O)n1CCC(=O)OCC(=O)Nc1ccc(N2CCOCC2)cc1", "Tested System": "Glucagon-like peptide 1 receptor (Homo sapiens)", "Meas Value": "inactive"}
{"Compound Structure String": "CCCc1nc(NCc2ccc3c(c2)OCO3)c2nnn(Cc3ccccc3Cl)c2n1", "Tested System": "Glucagon-like peptide 1 receptor (Homo sapiens)", "Meas Value": "inactive"}
{"Compound Structure String": "N#CC1(Nc2ccc3c4c(cccc24)CC3)CCCCC1", "Tested System": "Glucagon-like peptide 1 receptor (Homo sapiens)", "Meas Value": "inactive"}

Record summary for Cc1ccn2c(-c3csc(Nc4ccc(C(=O)O)cc4)n3)c(C)nc2c1 : reported Potency = inactive

Memo: CC(C)c1cc(C(=O)O)n[nH]1 , reported Potency: inactive

The molecule identified as Cc1nc(Nc2ccc3c(c2)OCCO3)c2nnn(Cc3ccccc3Cl)c2n1 registered its Potency at 3.55 µM (active)

Briefly, Potency measured for COC(=O)[C@]12CCCCC=C1N(Cc1ccco1)C(=O)[C@H](CC(=O)NCCCCc1ccccc1)C2 : inactive

# Potency of CCCCNC(=O)C[C@@H]1C[C@@]2(C(=O)OCC)CCC=C2N(Cc2ccco2)C1=O = inactive

###

Biological target: Glucagon-like peptide 1 receptor (Homo sapiens)
Experiment: qHTS of GLP-1 Receptor Inverse Agonists (Inhibition Mode); also: nearly all actives have a fitted effect of over 55% in size
Conditions: HEK293 GLP-1R CRE-luciferase, luminescence, 24 h, GLP-1R form is constitutively active; series mostly up to 38.3 µM
Screen size: about 410,000 compounds; about 6,400 (1.6%) were called active. Inconclusive results (about 20%) are left out. Calls follow the shape of the dose curve; as a rule, active = well fitted inhibition curve with a large enough effect; inconclusive = small, poorly fitted or top-dose-only effect; inactive = no such curve, though single readings can be large or run the other way. The full list was thinned out, with actives kept by preference.
Valid outcomes are listed here; reply with one: active, inactive

These recorded examples may help you get a feel for the data.
{"Compound Structure String": "O=C(OCCN1CCOCC1)C1(c2ccccc2)CCCCC1", "Category Label": "inactive"}
{"Compound Structure String": "CC(=O)N1CCC(C(=O)OCc2ccc(Cl)cc2)(c2ccccc2)CC1", "Category Label": "active"}
{"Compound Structure String": "Cc1cccc(C)c1N1CCN(S(=O)(=O)N2CCOCC2)CC1", "Category Label": "inactive"}
{"Compound Structure String": "O=C(OCc1cc(=O)n2ccsc2n1)C1(c2ccc(Cl)cc2)CC1", "Category Label": "inactive"}

What classification did Cc1cccc(C(=O)N2CCN(S(=O)(=O)N3CCCCC3)CC2)c1 end up with in this test?
inactive

Please share the test call associated with Cc1cc(C)n2c(Nc3c(C)cccc3C)c(CCc3ccccc3)nc2n1 .
inactive

###

Biological target: Glucagon-like peptide 1 receptor (Homo sapiens) (UniProt P43220)
Assay: qHTS of GLP-1 Receptor Inverse Agonists (Inhibition Mode); also: nearly all actives have a fitted effect of over 55% in size; also: potency is read from the fitted curve at half-maximal effect
Conditions: HEK293 GLP-1R CRE-luciferase, luminescence, 24 h, GLP-1R form is constitutively active; series mostly up to 38.3 µM
The campaign covered roughly 410,000 compounds. About 6,400 (1.6%) were called active. Roughly 20% stayed inconclusive and do not appear here. The sample as a whole holds a higher share of actives than the screen did.
Measured Attribute: Potency

The following compounds have reported results that may help.
{"Compound": "O=C(Nc1ccccc1)Oc1cccc2cccnc12", "Tested System": "Glucagon-like peptide 1 receptor (Homo sapiens) (UniProt P43220)", "Potency": "3.98 µM (active)"}
{"Compound": "O=C(Nc1ccc(F)cc1)C(CCc1ccccc1)N1CCN(CC(=O)N2CCCC2)CC1 (stereo not given)", "Tested System": "Glucagon-like peptide 1 receptor (Homo sapiens) (UniProt P43220)", "Potency": "inactive"}
{"Compound": "CC1(C(=O)NS(=O)(=O)c2ccc(C#N)cc2)CCN1C(=O)CC1CCCC1 (stereo not given)", "Tested System": "Glucagon-like peptide 1 receptor (Homo sapiens) (UniProt P43220)", "Potency": "inactive"}
{"Compound": "COc1ccc(NC(=O)c2sc(=O)n(Cc3ccc(S(=O)(=O)N(C)C)cc3)c2C)cc1", "Tested System": "Glucagon-like peptide 1 receptor (Homo sapiens) (UniProt P43220)", "Potency": "inactive"}
{"Compound": "CC(=O)N1Cc2cc(C(=O)NCc3cccc(F)c3)nc(-c3cccc(C4=CCCCC4)c3)c2[C@H]1CCO", "Tested System": "Glucagon-like peptide 1 receptor (Homo sapiens) (UniProt P43220)", "Potency": "inactive"}
{"Compound": "COc1ccc(CCNC(=O)Nc2ccc3c(c2)c(=O)n(C)n3C)cc1OC", "Tested System": "Glucagon-like peptide 1 receptor (Homo sapiens) (UniProt P43220)", "Potency": "inactive"}
{"Compound": "COc1ccc(OC)c(NC(=O)C2CCCN2S(=O)(=O)c2ccc3c(c2)CC(C)N3C(C)=O)c1 (stereo not given)", "Tested System": "Glucagon-like peptide 1 receptor (Homo sapiens) (UniProt P43220)", "Potency": "inactive"}
{"Compound": "CC(C)CC1C(=O)N(Cc2cn(Cc3ccco3)nn2)CCS(=O)(=O)N1Cc1ccc(-c2ccc(Cl)c(Cl)c2)cc1 (stereo not given)", "Tested System": "Glucagon-like peptide 1 receptor (Homo sapiens) (UniProt P43220)", "Potency": "10 µM (active)"}

Entry under test: CC(C)CC1C(=O)N(Cc2cn(CC3CCCCC3)nn2)CCS(=O)(=O)N1Cc1ccc(-c2ccc(Cl)cc2)cc1 (stereo not given) . Its Potency was inactive

For this compound ( OCc1ccc(OCCCOc2cccc3cccnc23)cc1 ), measured Potency is inactive

Lab note: measured Potency of O=C(NCc1ccc(F)cc1)c1cc(C2CCCCN2C(=O)c2ccccn2)on1 (stereo not given) was inactive

Lab note: CCc1nc2ccc(C(=O)NCCNC(C)=O)cn2c1N(CC)Cc1cccc(Br)c1 gave Potency of inactive

Recorded Potency (compound c1ccc2c(c1)nnn2-c1ccncc1 ): inactive

Lookup result for CCc1ccc(C(=O)NNC(=O)C2CCN(c3ncnc4sc(C)c(C)c34)CC2)cc1 ; measured Potency: 10 µM (active)
